Assay details: yeast display, Sf9 membrane polyspecificity reagent, FACS + sequencing; frameworks hold sequencing errors
Reported metric: polyreactivity (PSR sort gate)

QVQLVESGGGLVQAGGSLRLSCAASGFTFRYYAMGWYRQAPGKERELVAAITGSGVNTYYADSVKGRFTISRDNAKNTVYLQMNSLKPEDTAVYYCAAESESDPLFERYYWGQGTQVTVSS    high polyreactivity
QVQLVDSGGGLVQAGGSLRLSCAASGSTLAYYTMGWYRQAPGKERELVAAITSGGFTHYADSVKGRFTISRDNAKNTVYLQMNSLKPEDTAVYYCAAKRGPVYYGYYYLGQGTQVTVSS    high polyreactivity

* * *

Assay details: yeast display, Sf9 membrane polyspecificity reagent, FACS + sequencing; frameworks hold sequencing errors
Reported metric: polyreactivity (PSR sort gate)

QVQLVESGGGLVQAGGSLLLSCAASGRIINYYAMGWYRQAPGKEREFVAAITRSGGRTYYADSVKGRFTISRDNAKNTVYLQMNSLKPEDTAVYYCAAPYGTYAYDYWGQGTQVTVSS    high polyreactivity
QVQLVESGGGLVQAGGSLRLSCAASGSIMGWYRQAPGKERELVAAISRGGSTYYADSVKGRFTISRDNAKNTVYLQMNSLKPEDTAVYYCAAKTGGSRSRFEYWGQGTQVTVSS    high polyreactivity

* * *

Assay details: yeast display, Sf9 membrane polyspecificity reagent, FACS + sequencing; frameworks hold sequencing errors
Reported metric: polyreactivity (PSR sort gate)

The cases that follow already have their polyreactivity (PSR sort gate) on record.
QVQLVESGGGLVQAGGSLRLSCAASGSIFRRNAMGWYRQAPGKERELVATITSDGSTDYADSVKGRFTISRDNAKNTFYLQMISLKPEDTAVYYCAVAYLWRPYDFREFDYWGQGTQVTLSS    low polyreactivity
QVQLGESGGGLVQAGGSHRLICAATASTLGGYAMGWYRQAPGTERELVAAITRSGGSTYYADSVKGRFTISRDNAKNTVYLQMNSLKPEDTSVNYCGADRYSYFNIGYDYWGQGTQVTVSS    low polyreactivity
QVQLVESGGGLVQAGGSLRLSCAASGRIFRFYAMGWYRQAPGKERELVAGITYSGGSTFYADSVKGRFTISRDNAKNTVYLQMNSLKPEDTAVYYCAAVYVPYYWLGRSRGLDYWGQGTQVTVSS    high polyreactivity
QDQLLESGGGLGQAGGSLRLSCAASGITFGRYAMGWYRQAPGKERELVAAITWGGGSTYYADSVKGRFTISRDNAKNTVYLQMNSLKPEDTAVYYCAARSYGRWFGGYDSWGQGTQVTVSS    high polyreactivity
QVQLVESGGGLVQAGGSLRLSCAASGITFNSYAMGWYRQAPGKERELVASITERGDSTYYADSVKGRFTLSRDNAKNTVYLQMNSLKPEDTGVYYCAAAEHLTRPSSPTQDGDHWGQGTQVTVSS    low polyreactivity

Looking for the measured polyreactivity (PSR sort gate) of "QVQLVESGGGLVQAGGSLSLSCAASGRIIKFYAMGWYRQAPGKERELVARISRSGGRTYYSDSVKGRFTISRDNAKNTVYLQMNSLKPEDPAVYYCNADGDNRRDRYEYWGQGTQVTVSS" , can you help?
low polyreactivity

Looking for the measured polyreactivity (PSR sort gate) of "QVQLVESGGGLVQAGGSLRLSCAASGSIFNVYVMGWYRQAPGKERELVASITWTTGSTYADSVKGRFTISRDNAKNSVYFQMNSLKPEDTAVYYCNAEFPEDTSDDYWGQGTQVNVSS" , can you help?
low polyreactivity

Looking for the measured polyreactivity (PSR sort gate) of "QDQLVESGGGLVQEGGSLRLICAASGRTLQSYAMGGYRQAPGKERELVAAISGGASTYADSVKGRFTISRDNAKNTVYLQMNSLKPEDTAVYYCAADDDPVPTYEYDYWGQGTQVTVSS" , can you help?
low polyreactivity

Looking for the measured polyreactivity (PSR sort gate) of "QVQLVESGGGLVQAGGSLRLSCAASGRTFYRNPMGWYRQAPGKEWELVAGITRCGRTYYADSVKGRFRISRDNAKNTVYLQMNCLKPEDTAVYYCNKTGGNGNDYWGQGTQVTVSS" , can you help?
low polyreactivity

Looking for the measured polyreactivity (PSR sort gate) of "QVQLVESGGGLVQAGGSLRLSCAASGRTFYYNTMGWYRQAPGKERELVAALSSRGGTTSYADSVKGRFTISRDNAKNSVYLQMNSLKPEDTAVYYCNAETYRRGSYDYWGQGTQVTVSS" , can you help?
high polyreactivity

Looking for the measured polyreactivity (PSR sort gate) of "QVQLVESGGGLVQAGGSLRLSCAASGITFDNYAMGWYRQAPGKEWELVAAISSDDNTTYADSVKGRFTISRDNAKNTVYLQMNSLKPEDTAVYYCAADSRIYGYWEYDYWGQGTQVTVST" , can you help?
low polyreactivity

* * *

Assay details: yeast display, Sf9 membrane polyspecificity reagent, FACS + sequencing; frameworks hold sequencing errors
Reported metric: polyreactivity (PSR sort gate)

The cases that follow already have their polyreactivity (PSR sort gate) on record.
QVQLVESGGGLVQAGGSLRLSCAASGRTFGYNAMGWYRQAPGKERELVAAIRYSGGSTYYADSVKGRFTISRDNAKNTVYLQMNSLKPEDTAVYYCAAYCLFSSYGYDYWGQGTQVTVSS    high polyreactivity
QVQHVESGGGVVQAVGSLRLSCAASGYIFRTNAMGWYRQARGKERELVAAITRSGGRTYYADSVKGRFTISRDNAKNTVYLQMNSLKPEDTAVYYCAAGGRKPVITGDYWGQGTQVTVSS    high polyreactivity
QVQLVESGGGLVQAGGSLRLSCAASGFIFYRYAMGWYRQAPGKERELVAAITSDGSTYYADSVKGRFTISRDNAKNTVYLQMNSLKPEDTAVYYCNAERWGNSVGNYWGQGTQVTVSS    high polyreactivity
QVQLVESGGGLVQAGGSLRLSCAASGYTLSVNAMGWYRQAPGKERELVATIDFGGGSTYYADSVKGRFTISRDNAKNTVYLQMNSLKPEDTAVYYCNTEWTSLSKSSLGGRYDHWGQGTQVTVSS    low polyreactivity
QVQLVESGGGLVQAGGSLRLSCAASGFTLTAYAMGWYRQARGKEREFVAAISTSGTRTYYADSVKGRFTISRDNAKNTVYLQMNSLKPEDTAVYYCGARYSGYQYWKFNYWGQGTQVTVSS    high polyreactivity

Looking for the measured polyreactivity (PSR sort gate) of "QDQLVDSRGGLVKAGGSLRLSCSASGRTFYYYAMGWSRQAPGQERELVADINTRVTSTYYADSVKGRFTISRDNAKNTVYLQMNSLKPEDTGVYYCAVDPYGDSWEDWLRNYYYGYDYWGQGTQVTVSS" , can you help?
low polyreactivity

Looking for the measured polyreactivity (PSR sort gate) of "QVQLVESGGGFVQAGGSLRLSCAACGSTFATYGMGWYRQAPGKERELVADITSGGSTYYADSVKGRFTISRDNAKNTVYLQMNSLKPEDTAVYSCNAPYGGPYYIQYDYWGQGTQVTVSS" , can you help?
low polyreactivity

Looking for the measured polyreactivity (PSR sort gate) of "QVQLVESGGGLVQAGGSLRLSCAASGSIFIPNAMGWYRQAPGKERELVAAIRSGGSTYYADSVKGRFTISRDNAKNTVYLQLLSLKPEDTAVYYCAADTYTYYYYLARYYYWGQGTQVTVSS" , can you help?
low polyreactivity

* * *

Assay details: yeast display, Sf9 membrane polyspecificity reagent, FACS + sequencing; frameworks hold sequencing errors
Reported metric: polyreactivity (PSR sort gate)

The cases that follow already have their polyreactivity (PSR sort gate) on record.
QVQLVESGGGLVQAGGSLRLSCAASGRTFVVYAMGWYRQAPGKERELVAVISFTGDSTFYADSVKGRFTISRDNSKNTVYLQMNSLKPEDTAVYYCAADFRRVFSKYSYYLYFDFDYWGQGTQVTVSS    low polyreactivity
QVQLVESGGGLVQAGGSLRLSCAASGFTFYYYAMGWSRQAPGKERELVAAISQNGGRTYYADSVKGRFTISRDNAKNTVYLQMNSLKPEDTAVYYCAKASGYSSYGYWGQGTQVTVSS    high polyreactivity
QVQLVESGGGLVQAGGSLRLSCAASGLIFVINAMGWYRQAPGKERELVATISSRVSTNYADSVKGRFTISRDNAKNTVYLQMNSLKPEDTAVYYCNKGQTVSRGYRLYERFDYWGQGTQVTVSS    low polyreactivity
QVQLVESGGGLVQAGASLRLSCADSGRISESNDMGWNRQAPGKQRELVAAISSSGGSTYYADSVMGRFPISRDNAKNTVYLQMNSLKPEDTALYYCNAVYYRTVLKIGVYEYDYWGQGTQVTVSS    low polyreactivity
QVQLVESRGGLVQAGGSLRLSCADSGITFYVYTMGWNIKAPGKQRDLVASISGRGGSTYYAVSVKGRFTISRDNAKNTVYLQMNSLKPEDTAVYYCEAYRLRFWSMDYWGQGTQVTGSS    high polyreactivity
QVQLVESVRGLVQAGGSLRLICDASGRTFPRYAKGWNRQAPGKEWEFVAAIRYSGDNTYYADSVKGRFTISRDNAKNTVYLQMNSLKPEDTAVYYCAARTYGNYRYSTYYYWGQGTQVTVSS    high polyreactivity
QVQLVESCGGLVQAGGSLRLSCAASGRTFSLYTMGWYRQAPGKERELVATIRSRGGSTYYADSVKGRFTISRDNAKNTFYLQMNSLIPEDTAVYYCATVLRGPFLGWHGGPMYHWGQGTQVTVSS    low polyreactivity
QVKLVESGGGLVQAGGTLPITCAASGRTFARYAMVWYRQAPGKERELVSAITGRSGTNTYYADSVKGRFTISRDNAKNTVYLQMNSLKPEDTAVYYCAADLQGYYFRGRWTSYDYWGQGTQVTVSS    high polyreactivity

Moving on to the next sequence.
Looking for the measured polyreactivity (PSR sort gate) of "QVQLVESGGGLVQAGGSLRLSCAASGRTFRENAMGWYRQAPGKERELVAAISWRAGSTYYADSVKGRFTISRDNAKNTVYLQMNSLKPEDTAVYYCAAKYTVSFYLWGTFNYWGQGTQVTVSS" , can you help?
high polyreactivity
